# ASSAY: in vivo
# Design: species or system Sprague-Dawley rats
# CONDITION LABEL: female, Sprague-Dawley, rat, inhaled or intranasal, 2.73 ug

{"ENTRY SMILES": "N[C@@H](Cc1cc(I)c(Oc2ccc(O)c(I)c2)c(I)c1)C(=O)O", "ENDPOINT UNIT": "ng·h/mL", "AUC(0-inf)": 89.7}
